# Tested on: RARa homodimer (NR concentration 270 nM)
# ASSAY: PBM binding z-score (relative to random genomic background probes); higher = stronger binding; sequences stand for … in GC…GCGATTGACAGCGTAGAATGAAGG
ENDPOINT: PBM binding z-score
The answer should be written as a number, with no unit following it.

Sample records with PBM binding z-score:
INSERT INTO results (biopolymer_sequence, numeric_result) VALUES
  ('GCGATTGGGGCATCAGCAGGTTACCATAACTTAA', -0.368),
  ('GCGACTGGGGCAAAGCAGGTAACCATAAGGTTGG', -0.971),
  ('TATACCGGGTCAAAGGCCAGAGTACGAATGTCGA', 0.935);

Identify the reported PBM binding z-score for the following entry. TCATATAGGTAAACAGGTGCAAGTCCGTAAGTTA
1.57

Identify the reported PBM binding z-score for the following entry. CCTGCTAGGTCATGGTCAGCTATTCTACAGTATG
-0.317

Identify the reported PBM binding z-score for the following entry. ACAAACAGGTGATGAAGGTAACTCAGGCTATCAT
0.803

Identify the reported PBM binding z-score for the following entry. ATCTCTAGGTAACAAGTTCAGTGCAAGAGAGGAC
1.05

Identify the reported PBM binding z-score for the following entry. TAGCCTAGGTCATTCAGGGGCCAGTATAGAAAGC
-0.372

Identify the reported PBM binding z-score for the following entry. GCGTACGGGTCAAAGGTTATAGCATGAATAGAAT
0.0431

Identify the reported PBM binding z-score for the following entry. GCAATTAGTTGAAAGGGCAACCGAATGATTCTCG
1.18

Identify the reported PBM binding z-score for the following entry. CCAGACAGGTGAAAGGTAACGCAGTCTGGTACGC
0.457

Identify the reported PBM binding z-score for the following entry. TCTTGAAGATCAGCAGGTTAAGAAAGCTGGCCAA
-0.00981

Identify the reported PBM binding z-score for the following entry. ACTTACGGGTCAACGAGGTTATAGGACGCGTATA
1.18

====

# System: LXRb:RXRa (NR concentration 270 nM, RXRa partner concentration 90 nM)
# ASSAY: PBM binding z-score (relative to random genomic background probes); higher = stronger binding; sequences stand for … in GC…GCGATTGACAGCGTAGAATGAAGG
We use 2 as the dividing line for PBM binding z-score: on or above the line is true, below is false.

Worked set:
INSERT INTO results (biopolymer_sequence, study_target, label_class) VALUES
  ('ACTAGCAGGCCAAGGGTCTCTCAAGATTAGTCCG', 'LXRb:RXRa (NR concentration 270 nM, RXRa partner concentration 90 nM)', 'false'),
  ('AATACAGGGTCATGGTAGGCCAGAGTACGCACAG', 'LXRb:RXRa (NR concentration 270 nM, RXRa partner concentration 90 nM)', 'true'),
  ('TAGCCTAGGTCAGTCAGGGGCCAGTATAGAAAGC', 'LXRb:RXRa (NR concentration 270 nM, RXRa partner concentration 90 nM)', 'false'),
  ('GCTAGCAGGCGATTTGGGTCACTCAATGACGGGC', 'LXRb:RXRa (NR concentration 270 nM, RXRa partner concentration 90 nM)', 'false'),
  ('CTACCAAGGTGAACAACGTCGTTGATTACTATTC', 'LXRb:RXRa (NR concentration 270 nM, RXRa partner concentration 90 nM)', 'false'),
  ('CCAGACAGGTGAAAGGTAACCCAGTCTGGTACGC', 'LXRb:RXRa (NR concentration 270 nM, RXRa partner concentration 90 nM)', 'false');

Has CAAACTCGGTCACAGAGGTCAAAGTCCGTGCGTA a recorded PBM binding z-score greater than or equal to 2?
true

Has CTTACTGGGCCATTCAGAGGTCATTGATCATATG a recorded PBM binding z-score greater than or equal to 2?
true

Has CCTAGCAGGCCAGGGTCACTCACGCATTTCGCTT a recorded PBM binding z-score greater than or equal to 2?
false

Has TAGCCTAGGTCATGCGCCAGTATACCACGCGAAC a recorded PBM binding z-score greater than or equal to 2?
true

Has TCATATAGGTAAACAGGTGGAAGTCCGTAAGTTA a recorded PBM binding z-score greater than or equal to 2?
false

Has AGCTCTAGGTAACAAGTTCAGTGAAAGAGAGGAC a recorded PBM binding z-score greater than or equal to 2?
false
